molecular target: T1, human LTBP1-proTGFβ1 complex (human, UniProt Q14766 347-1721; P01137 30-390); assay: SPR Biacore 8K, Fab over captured antigen
T1 construct: Large latent complex: one presenting molecule disulfide-linked to a proTGFβ1 dimer; also called Hu LTBP1-proTGFβ1; huLTBP1 proTGFβ1
T1 sequence (Q14766 347-1721 limits assumed, chain 1 of 2): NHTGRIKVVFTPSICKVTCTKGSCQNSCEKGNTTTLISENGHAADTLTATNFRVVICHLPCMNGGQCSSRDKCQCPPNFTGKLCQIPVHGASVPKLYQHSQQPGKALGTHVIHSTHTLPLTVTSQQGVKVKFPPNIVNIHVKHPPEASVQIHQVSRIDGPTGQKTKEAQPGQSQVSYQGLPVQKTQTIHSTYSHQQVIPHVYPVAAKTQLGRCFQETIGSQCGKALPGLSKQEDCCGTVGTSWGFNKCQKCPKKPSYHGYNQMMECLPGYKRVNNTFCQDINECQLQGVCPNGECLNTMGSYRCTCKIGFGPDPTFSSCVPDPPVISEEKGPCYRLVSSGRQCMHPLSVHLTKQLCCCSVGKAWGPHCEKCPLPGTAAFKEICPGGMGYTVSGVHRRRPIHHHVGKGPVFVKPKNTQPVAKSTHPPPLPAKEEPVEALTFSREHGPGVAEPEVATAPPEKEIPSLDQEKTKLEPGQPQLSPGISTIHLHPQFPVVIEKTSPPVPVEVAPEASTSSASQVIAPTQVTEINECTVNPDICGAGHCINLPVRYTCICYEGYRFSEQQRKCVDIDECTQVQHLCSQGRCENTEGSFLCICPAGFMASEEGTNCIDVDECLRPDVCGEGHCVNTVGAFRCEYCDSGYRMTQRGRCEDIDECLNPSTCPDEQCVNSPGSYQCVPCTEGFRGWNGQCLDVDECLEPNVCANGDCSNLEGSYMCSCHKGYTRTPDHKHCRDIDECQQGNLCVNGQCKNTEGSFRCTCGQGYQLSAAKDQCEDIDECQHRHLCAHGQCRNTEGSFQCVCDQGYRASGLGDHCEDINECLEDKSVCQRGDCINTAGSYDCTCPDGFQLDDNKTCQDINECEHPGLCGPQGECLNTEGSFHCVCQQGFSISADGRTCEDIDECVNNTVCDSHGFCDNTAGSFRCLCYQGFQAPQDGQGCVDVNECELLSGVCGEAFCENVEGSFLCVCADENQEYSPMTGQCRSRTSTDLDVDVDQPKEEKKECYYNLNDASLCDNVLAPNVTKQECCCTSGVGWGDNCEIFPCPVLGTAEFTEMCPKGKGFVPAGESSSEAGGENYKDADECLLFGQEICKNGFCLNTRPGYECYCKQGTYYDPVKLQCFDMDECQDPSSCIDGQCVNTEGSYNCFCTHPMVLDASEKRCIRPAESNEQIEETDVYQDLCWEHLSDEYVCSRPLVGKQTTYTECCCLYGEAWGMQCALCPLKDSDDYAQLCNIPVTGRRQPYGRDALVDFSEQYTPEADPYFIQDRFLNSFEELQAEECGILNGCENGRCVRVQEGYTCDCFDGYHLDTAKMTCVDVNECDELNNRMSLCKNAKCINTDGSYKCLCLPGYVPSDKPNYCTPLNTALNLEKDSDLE
T1 sequence (P01137 30-390 limits assumed, chain 2 of 2): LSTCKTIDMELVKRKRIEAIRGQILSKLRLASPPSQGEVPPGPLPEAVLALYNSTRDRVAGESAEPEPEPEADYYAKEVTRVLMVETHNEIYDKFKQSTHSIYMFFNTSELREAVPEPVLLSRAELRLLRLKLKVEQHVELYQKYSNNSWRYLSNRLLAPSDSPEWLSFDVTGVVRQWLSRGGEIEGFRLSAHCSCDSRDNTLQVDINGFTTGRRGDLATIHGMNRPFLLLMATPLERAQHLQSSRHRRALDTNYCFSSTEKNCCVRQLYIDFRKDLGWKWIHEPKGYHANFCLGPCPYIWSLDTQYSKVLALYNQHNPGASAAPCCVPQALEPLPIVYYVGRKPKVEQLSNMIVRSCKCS
Recorded koff values for a group of binders are listed next.
The number alone won't do; follow it with the unit.

Example entries and their recorded answers appear below.
{"binder": "SR-AB51-HuFab (Fab, V domains shown, Human Fab; also called SR-AB51 Fab) VH: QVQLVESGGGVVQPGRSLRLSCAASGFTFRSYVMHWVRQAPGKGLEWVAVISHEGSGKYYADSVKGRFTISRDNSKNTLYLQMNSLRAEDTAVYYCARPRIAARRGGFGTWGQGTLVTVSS VL: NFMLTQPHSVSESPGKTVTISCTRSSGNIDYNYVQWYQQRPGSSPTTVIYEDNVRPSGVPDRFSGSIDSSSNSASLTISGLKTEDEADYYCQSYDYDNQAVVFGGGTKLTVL", "measure": "koff", "observed": "0.00015 s⁻¹"}
{"binder": "SR-AB47-HuFab (Fab, V domains shown, Human Fab; also called SR-AB47 Fab) VH: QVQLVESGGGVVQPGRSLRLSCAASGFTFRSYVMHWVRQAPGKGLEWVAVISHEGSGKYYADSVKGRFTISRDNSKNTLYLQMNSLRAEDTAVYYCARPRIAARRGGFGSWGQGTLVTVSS VL: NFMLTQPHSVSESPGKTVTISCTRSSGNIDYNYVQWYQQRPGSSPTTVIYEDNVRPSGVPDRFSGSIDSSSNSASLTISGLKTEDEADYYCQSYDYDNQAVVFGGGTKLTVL", "measure": "koff", "observed": "0.000136 s⁻¹"}
{"binder": "SR-AB43-HuFab (Fab, V domains shown, Human Fab; also called SR-AB43 Fab) VH: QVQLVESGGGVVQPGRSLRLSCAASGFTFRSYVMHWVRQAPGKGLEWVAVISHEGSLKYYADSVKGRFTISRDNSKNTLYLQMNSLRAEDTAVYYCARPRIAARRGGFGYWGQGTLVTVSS VL: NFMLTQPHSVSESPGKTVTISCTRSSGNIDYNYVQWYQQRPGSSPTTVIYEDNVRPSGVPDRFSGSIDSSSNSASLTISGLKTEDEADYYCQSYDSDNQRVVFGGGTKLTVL", "measure": "koff", "observed": "0.000284 s⁻¹"}
{"binder": "SR-AB60-HuFab (Fab, V domains shown, Human Fab; also called SR-AB60 Fab) VH: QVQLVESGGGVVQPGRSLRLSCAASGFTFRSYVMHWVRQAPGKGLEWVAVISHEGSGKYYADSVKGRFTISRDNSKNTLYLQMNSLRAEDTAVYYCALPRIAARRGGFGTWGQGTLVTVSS VL: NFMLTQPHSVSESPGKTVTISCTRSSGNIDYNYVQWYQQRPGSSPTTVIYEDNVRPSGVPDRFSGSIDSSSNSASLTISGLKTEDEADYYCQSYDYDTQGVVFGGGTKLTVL", "measure": "koff", "observed": "0.00012 s⁻¹"}
{"binder": "SR-AB58-HuFab (Fab, V domains shown, Human Fab; also called SR-AB58 Fab) VH: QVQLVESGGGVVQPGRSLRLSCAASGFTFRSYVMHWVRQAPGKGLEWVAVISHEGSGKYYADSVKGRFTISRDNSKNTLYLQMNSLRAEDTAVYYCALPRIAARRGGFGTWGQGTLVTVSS VL: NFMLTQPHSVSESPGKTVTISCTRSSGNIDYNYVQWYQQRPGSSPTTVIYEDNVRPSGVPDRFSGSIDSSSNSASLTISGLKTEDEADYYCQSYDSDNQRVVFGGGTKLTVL", "measure": "koff", "observed": "0.000162 s⁻¹"}

# koff (binder: SR-AB50-HuFab (Fab, V domains shown, Human Fab; also called SR-AB50 Fab) VH: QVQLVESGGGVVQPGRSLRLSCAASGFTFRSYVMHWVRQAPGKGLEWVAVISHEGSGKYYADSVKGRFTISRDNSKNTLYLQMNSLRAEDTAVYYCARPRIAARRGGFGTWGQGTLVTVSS VL: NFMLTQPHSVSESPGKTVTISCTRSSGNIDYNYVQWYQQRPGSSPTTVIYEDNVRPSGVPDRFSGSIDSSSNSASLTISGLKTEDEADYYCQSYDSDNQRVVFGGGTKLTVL ) is 0.000182 s⁻¹

The reported measurements were obtained from patent US20220064276A1.
